# target: Tyrosine-protein kinase CSK (Homo sapiens) (UniProt P41240)
# Sequence (P41240 2-450 limits assumed): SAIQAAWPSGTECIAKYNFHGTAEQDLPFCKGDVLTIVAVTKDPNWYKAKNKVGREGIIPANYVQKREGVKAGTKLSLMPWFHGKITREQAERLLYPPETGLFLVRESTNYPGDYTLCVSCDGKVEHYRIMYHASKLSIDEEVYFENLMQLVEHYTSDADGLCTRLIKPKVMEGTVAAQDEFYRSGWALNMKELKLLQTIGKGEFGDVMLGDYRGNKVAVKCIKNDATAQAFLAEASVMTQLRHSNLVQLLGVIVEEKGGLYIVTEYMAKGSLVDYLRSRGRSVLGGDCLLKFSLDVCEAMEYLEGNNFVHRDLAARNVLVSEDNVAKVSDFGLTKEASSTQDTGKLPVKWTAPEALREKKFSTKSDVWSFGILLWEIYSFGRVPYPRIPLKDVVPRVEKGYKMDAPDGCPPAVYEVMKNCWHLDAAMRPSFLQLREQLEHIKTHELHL
# protocol_details: Inhibition of human CSK at 1 uM relative to control; values are per cent of control
assay_readout: residual activity (%)

>  <mol_smiles>
CN(C)c1cc2cc(n1)CCCn1cc(c3ccccc31)C1=C(C(=O)NC1=O)c1cn(c3ccccc13)CCC2

>  <readout_unit>
%

>  <val>
133

$$$$
>  <mol_smiles>
O=C1NC(=O)C2=C1c1cn(c3ccccc13)CCCc1ccc(c(N3CCCC3)n1)CCCn1cc2c2ccccc21

>  <readout_unit>
%

>  <val>
129

$$$$
>  <mol_smiles>
CN(C)c1nc2ccc1CCCn1cc(c3ccccc31)C1=C(C(=O)NC1=O)c1cn(c3ccccc13)CC2

>  <readout_unit>
%

>  <val>
95

$$$$
>  <mol_smiles>
O=C1NC(=O)C2=C1c1cn(c3ccccc13)CCCc1cc(nc(N3CCCC3)c1)CCCn1cc2c2ccccc21

>  <readout_unit>
%

>  <val>
125

$$$$

* * *

# target: Tyrosine-protein kinase ZAP-70 (Homo sapiens)
# protocol_details: Residual activity of human ZAP70 kinase at 1 uM relative to control
assay_readout: residual activity (%)

>  <mol_smiles>
CN(C)c1nc2ccc1CCCn1cc(c3ccccc31)C1=C(C(=O)NC1=O)c1cn(c3ccccc13)CC2

>  <readout_unit>
%

>  <residual activity>
113

$$$$
>  <mol_smiles>
O=C1NC(=O)C2=C1c1cn(c3ccccc13)CCCc1ccc(c(N3CCCC3)n1)CCCn1cc2c2ccccc21

>  <readout_unit>
%

>  <residual activity>
121

$$$$
>  <mol_smiles>
O=C1NC(=O)C2=C1c1cn(c3ccccc13)CCCc1cc(nc(N3CCCC3)c1)CCCn1cc2c2ccccc21

>  <readout_unit>
%

>  <residual activity>
115

$$$$
>  <mol_smiles>
CN(C)c1cc2cc(n1)CCCn1cc(c3ccccc31)C1=C(C(=O)NC1=O)c1cn(c3ccccc13)CCC2

>  <readout_unit>
%

>  <residual activity>
103

$$$$

* * *

# target: Casein kinase I isoform delta (Homo sapiens)
# protocol_details: Inhibition of CK1delta at 1 uM relative to control; values are per cent of control
assay_readout: residual activity (%)

>  <mol_smiles>
O=C1NC(=O)C2=C1c1cn(c3ccccc13)CCCc1cc(nc(N3CCCC3)c1)CCCn1cc2c2ccccc21

>  <residual activity (%)>
112

$$$$
>  <mol_smiles>
O=C1NC(=O)C2=C1c1cn(c3ccccc13)CCCc1ccc(c(N3CCCC3)n1)CCCn1cc2c2ccccc21

>  <residual activity (%)>
109

$$$$
>  <mol_smiles>
CN(C)c1cc2cc(n1)CCCn1cc(c3ccccc31)C1=C(C(=O)NC1=O)c1cn(c3ccccc13)CCC2

>  <residual activity (%)>
111

$$$$
>  <mol_smiles>
CN(C)c1nc2ccc1CCCn1cc(c3ccccc31)C1=C(C(=O)NC1=O)c1cn(c3ccccc13)CC2

>  <residual activity (%)>
107

$$$$

* * *

# target: Ribosomal protein S6 kinase alpha-1 (Rattus norvegicus)
# protocol_details: Inhibition of rat Rsk1 at 1 uM relative to control; values are per cent of control
assay_readout: residual activity (%)

>  <mol_smiles>
CN(C)c1nc2ccc1CCCn1cc(c3ccccc31)C1=C(C(=O)NC1=O)c1cn(c3ccccc13)CC2

>  <readout_unit>
%

>  <val>
37

$$$$
>  <mol_smiles>
CN(C)c1cc2cc(n1)CCCn1cc(c3ccccc31)C1=C(C(=O)NC1=O)c1cn(c3ccccc13)CCC2

>  <readout_unit>
%

>  <val>
7

$$$$

1 = O=C1NC(=O)C2=C1c1cn(c3ccccc13)CCCc1cc(nc(N3CCCC3)c1)CCCn1cc2c2ccccc21
2 = O=C1NC(=O)C2=C1c1cn(c3ccccc13)CCCc1ccc(c(N3CCCC3)n1)CCCn1cc2c2ccccc21
Pick one: 1 or 2 . Which one has the lower reported residual activity? Return value: the label identifying the chosen record.
1
(1: 5%, 2: 67%)
